TARGET OR SYSTEM: Cytochrome P450 2D6 (Homo sapiens)
Sequence (P10635 whole entry): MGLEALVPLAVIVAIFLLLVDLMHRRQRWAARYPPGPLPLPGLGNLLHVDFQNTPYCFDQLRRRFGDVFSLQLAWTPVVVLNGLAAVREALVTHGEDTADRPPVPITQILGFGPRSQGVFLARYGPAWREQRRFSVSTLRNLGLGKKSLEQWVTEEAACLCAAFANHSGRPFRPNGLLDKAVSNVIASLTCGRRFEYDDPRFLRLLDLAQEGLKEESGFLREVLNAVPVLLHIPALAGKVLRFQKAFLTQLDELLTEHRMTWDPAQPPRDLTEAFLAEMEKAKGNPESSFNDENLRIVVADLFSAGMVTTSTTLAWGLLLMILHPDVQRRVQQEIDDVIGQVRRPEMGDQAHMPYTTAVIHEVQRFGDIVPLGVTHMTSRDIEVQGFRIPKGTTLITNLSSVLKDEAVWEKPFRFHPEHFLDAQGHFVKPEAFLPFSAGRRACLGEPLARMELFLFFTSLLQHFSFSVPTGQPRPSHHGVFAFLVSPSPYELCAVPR
pIC50: −log10 of the molar value.
REPORTED METRIC: pIC50

Sample `C[C@@H]1COCCN1c1cc(N2CCOC[C@@H]2C)nc2[nH]c(-c3ccccn3)nc12` — what was its pIC50? < 4.30

====

Can you tell me pIC50 for the items I'm about to list?
TARGET OR SYSTEM: Serine/threonine-protein kinase mTOR (Mus musculus, UniProt Q9JLN9)
ASSAY NOTES: Inhibition of mTOR in TSC1 knockout mouse MEF cells assessed as reduction in phosphorylated S6 level at serine 240/244 residues incubated for 2 hrs by Hoechst/Alexa Fluor 647 staining based analysis
Type: cell-based
Answers are plain numbers, as −log10 of the molar value.

For each entry beneath this line, provide reported pIC50.
1. C[C@@H]1COCCN1c1nc(N2CCOC[C@@H]2C)cc2sc(-c3cc[nH]n3)nc12
2. C[C@@H]1COCCN1c1cc(N2CCOC[C@@H]2C)nc2[nH]c(-c3cc[nH]n3)nc12

1. 7.02
2. 8.11

For each entry beneath this line, provide reported pIC50.
1. C[C@@H]1COCCN1c1nc(N2CCOC[C@@H]2C)nc2sc(-c3cc[nH]n3)nc12
2. C[C@@H]1COCCN1c1cc(N2CCOC[C@@H]2C)nc2[nH]c(-c3cc[nH]n3)cc12
3. C[C@@H]1COCCN1c1cc(N2C3CCC2COC3)nc2[nH]c(-c3ccccn3)nc12

1. 8.30
2. 7.47
3. 8.18

====

ASSAY NOTES: Drug concentration in C57BL/6 mouse plasma at 10 mg/kg, po measured after 8 hrs
Type: ADME, organism-based
REPORTED METRIC: concentration at 8 h (nM)
Give bare numbers, in nM.

Sample `C[C@@H]1COCCN1c1cc(N2CCOC[C@@H]2C)nc2[nH]c(-c3cscn3)nc12` — what was its concentration at 8 h? 406

====

ASSAY NOTES: Metabolic stability in human liver microsomes assessed as intrinsic clearance at 1 uM incubated for 30 mins in presence of NADPH by LC-MS/MS analysis
Type: ADME, Microsome
MEASUREMENT SETUP: read-out: CLH
Can you tell me microsomal CLint at 1 µM for the items I'm about to list?

Sample `C[C@@H]1COCCN1c1nc(N2CCOC[C@@H]2C)nc2sc(-c3cc[nH]n3)nc12` — what was its microsomal CLint at 1 µM? 92 µL/min/mg

Sample `C[C@@H]1COCCN1c1cc(N2CCOC[C@@H]2C)nc2[nH]c(-c3ccccn3)nc12` — what was its microsomal CLint at 1 µM? 22 µL/min/mg

Proceed to the following item.
Sample `C[C@@H]1COCCN1c1cc(N2CCOC[C@@H]2C)nc2[nH]c(-c3cscn3)nc12` — what was its microsomal CLint at 1 µM? 3.4 µL/min/mg

====

Can you tell me half-life for the items I'm about to list?
ASSAY NOTES: Half life in C57BL/6 mouse at 1 mg/kg, iv and 3 mg/kg, ip measured upto 24 hrs by HPLC-MS analysis
Assay type: ADME, organism-based
MEASUREMENT SETUP: in vivo
Dear colleague, please send the value followed by its unit.

Sample `C[C@@H]1COCCN1c1cc(N2CCOC[C@@H]2C)nc2[nH]c(-c3cscn3)nc12` — what was its half-life? 2.7 h

Proceed to the following item.
Sample `C[C@@H]1COCCN1c1cc(N2CCOC[C@@H]2C)nc2[nH]c(-c3ccccn3)nc12` — what was its half-life? 2 h
